test system: S. mansoni adult schistosomes; test: Schistosomiasis screening, adult worm killing (S. mansoni); format: cell-based, Schistosoma mansoni; conditions: adult worms, final concentration 143 μM, 45 minutes incubation, washed, cultured 10-14 days, read day 14
Label class 1 when Kill % S. m is strictly below 50%; otherwise label class 0.

## Input Regarding Cc1c[nH]c2c1C13CC1CN(S(C)(=O)=O)C3=CC2=O (stereo not drawn) , kindly confirm whether its Kill % S. m is beneath 50%.
## Output class 1

## Input Try this compound next: "O=C(O)CCCn1c2ccccc2c(=O)c2ccccc21"
## Output class 0

## Input Try this compound next: "CCCCCS(=O)(=O)OCC"
## Output class 1

## Input Try this compound next: "CN(C)CCNC(=O)c1cccc2c(N)c3cc(Cl)ccc3nc12"
## Output class 0

## Input Try this compound next: "CCCS(=O)(=O)OCC"
## Output class 1

## Input Try this compound next: "CC(=O)Nc1cnc(COC(N)=O)n1C"
## Output class 1

* * *

system: S. mansoni adult schistosomes; experiment: Schistosomiasis screening, adult worm killing (S. mansoni); format: cell-based, Schistosoma mansoni; settings: adult worms, final concentration 143 μM, 45 minutes incubation, washed, cultured 10-14 days, read day 14
OUTCOME_MEASURE: Kill % S. m (%)
Numbers only; they are read as %.

## Input # lookup: Kill % S. m of O=Nc1ccc2ccc3cc4ccccc4c4ccc1c2c34 [CIDD-0150608]
## Output 93.3

## Input Try this compound next: c1cc2ccc3c4ccc5cccc(c(c1)c23)c54 [CIDD-0150609]
## Output 16.6

## Input Try this compound next: Oc1cccc2c1ccc1c(F)c3ccccc3cc12 [CIDD-0150240]
## Output 20

## Input Try this compound next: OCC(O)COc1ccccc1C1CCCC1 (stereo not drawn) [CIDD-0150607]
## Output 50

## Input Try this compound next: Nc1c2ccccc2nc2c(C(=O)NCCNCCO)cccc12 [CIDD-0150236]
## Output 43

## Input Try this compound next: C[C@@H](O)[C@H]1C(=O)N2C(C(=O)O)=C(S[C@@H]3CN[C@H](C(=O)Nc4cccc(C(=O)O)c4)C3)[C@H](C)[C@H]12 [CIDD-0150610]
## Output 100

## Input Try this compound next: Cc1nc(SC[C@H](N)C(=O)O)c(N)n1C [CIDD-0150331]
## Output 10

## Input Try this compound next: CN(C)CCCNC(=O)c1cccc2c(N)c3ccccc3nc12 [CIDD-0150238]
## Output 6

## Input Try this compound next: O=[N+]([O-])c1ccc2cc(O)c3cccc4ccc1c2c43 [CIDD-0150330]
## Output 10

* * *

tested on: S. mansoni adult schistosomes; assay: Schistosomiasis screening, adult worm killing (S. mansoni); type: cell-based, Schistosoma mansoni; settings: adult worms, final concentration 143 μM, 45 minutes incubation, washed, cultured 10-14 days, read day 14
OUTCOME_MEASURE: Kill % S. m (%)
Numbers only; they are read as %.

## Input # lookup: Kill % S. m of "O=S([O-])([O-])=S.O=S([O-])([O-])=S.[Ag+].[Na+].[Na+].[Na+]"
## Output 100

## Input Try this compound next: "O=[N+]([O-])c1ccc2c(O)cc3cccc4ccc1c2c43"
## Output 40

## Input Try this compound next: "O=[N+]([O-])c1ccc2c3c1ccc1cccc(c13)[C@@H](O)[C@H]2O"
## Output 16

## Input Try this compound next: O=[N+]([O-])c1cc(NCC2(Cc3cccc(C(F)(F)F)c3)CCN(Cc3c[nH]c4ccccc34)C2)ccc1CO (stereo not shown)
## Output 100

Where do these numbers come from? They come from patent US20220227709A1.
